This collection of values is drawn from ChEMBL document CHEMBL1961873.

system: Misshapen-like kinase 1 (Homo sapiens) (UniProt Q8N4C8);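 further: mean inhibition value reported, from GSK PKIS kinase profiling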
Sequence (Q8N4C8 whole entry, looked up): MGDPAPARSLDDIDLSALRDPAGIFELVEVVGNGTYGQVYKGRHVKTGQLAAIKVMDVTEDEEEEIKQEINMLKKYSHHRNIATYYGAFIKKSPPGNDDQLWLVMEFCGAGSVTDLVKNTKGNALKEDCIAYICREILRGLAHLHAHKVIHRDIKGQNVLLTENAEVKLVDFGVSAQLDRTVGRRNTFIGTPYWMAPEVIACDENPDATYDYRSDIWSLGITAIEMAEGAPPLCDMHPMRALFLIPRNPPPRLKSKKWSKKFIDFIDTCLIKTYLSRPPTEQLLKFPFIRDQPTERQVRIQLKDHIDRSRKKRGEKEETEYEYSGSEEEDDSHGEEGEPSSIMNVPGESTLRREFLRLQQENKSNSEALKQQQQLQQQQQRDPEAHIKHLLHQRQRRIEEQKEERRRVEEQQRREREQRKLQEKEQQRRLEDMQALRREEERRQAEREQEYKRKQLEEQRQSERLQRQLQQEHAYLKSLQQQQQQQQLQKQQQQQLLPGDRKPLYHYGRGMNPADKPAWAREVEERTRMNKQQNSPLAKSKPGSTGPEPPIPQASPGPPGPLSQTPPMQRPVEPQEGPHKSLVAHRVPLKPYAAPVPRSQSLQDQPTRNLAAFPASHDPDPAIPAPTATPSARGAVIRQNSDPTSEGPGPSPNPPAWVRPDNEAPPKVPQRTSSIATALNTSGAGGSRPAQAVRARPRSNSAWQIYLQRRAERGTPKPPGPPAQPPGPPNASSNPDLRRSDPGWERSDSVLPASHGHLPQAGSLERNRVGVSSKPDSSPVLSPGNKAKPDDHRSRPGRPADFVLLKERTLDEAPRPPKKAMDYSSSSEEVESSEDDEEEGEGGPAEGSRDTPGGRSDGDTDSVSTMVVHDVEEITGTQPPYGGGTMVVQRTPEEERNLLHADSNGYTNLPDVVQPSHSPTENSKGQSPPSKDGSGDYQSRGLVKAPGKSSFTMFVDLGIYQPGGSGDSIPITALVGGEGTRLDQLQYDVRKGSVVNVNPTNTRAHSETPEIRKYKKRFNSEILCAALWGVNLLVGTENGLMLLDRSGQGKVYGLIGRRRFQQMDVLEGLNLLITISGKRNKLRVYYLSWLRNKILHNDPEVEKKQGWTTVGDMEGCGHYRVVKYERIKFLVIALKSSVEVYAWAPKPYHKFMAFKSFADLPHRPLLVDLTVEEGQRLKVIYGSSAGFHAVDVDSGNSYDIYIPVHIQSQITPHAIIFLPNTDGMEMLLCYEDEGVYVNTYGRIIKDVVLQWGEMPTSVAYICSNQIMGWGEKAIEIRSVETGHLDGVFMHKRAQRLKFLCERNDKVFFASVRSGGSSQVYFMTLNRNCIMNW
settings: at 0.1 µM
reported.endpoint: inhibition (%)
Unit % implied. Number only.

Measured inhibition, CC1=C(C(=O)Nc2ccc3[nH]ncc3c2)C(c2ccc(F)cc2)NC(=O)N1 (stereo unspecified) : 7.37

Measured inhibition, CS(=O)(=O)CCNCc1ccc(-c2ccc3ncnc(Nc4ccc(OCc5cccc(F)c5)c(C(F)(F)F)c4)c3c2)o1 : 4.62

Measured inhibition, CCCN1CCC(Oc2cc(Nc3nc(Nc4cccc(F)c4C(N)=O)c4cc[nH]c4n3)c(OC)cc2Cl)CC1 : 1

Measured inhibition, CC(C)=Cc1cccc2c1/C(=N/Nc1ccc(S(N)(=O)=O)cc1)C(=O)N2 : 3.63

Measured inhibition, COc1ccc(COc2ccc(Cc3cnc(N)nc3N)cc2OC)cc1 : 0.71

Measured inhibition, CS(=O)(=O)CCNCc1ccc(-c2ccc3ncnc(Nc4ccc(OCc5ccccc5)c(Cl)c4)c3c2)o1 : 1.93

Measured inhibition, CS(=O)(=O)Nc1ccc(N/C=C2\C(=O)Nc3ccccc32)cc1 : 11.8

Measured inhibition, CN1CCC(C(=O)Nc2n[nH]c3nnc(-c4ccccc4)cc23)CC1 : 6.64

* * *

system: Serine/threonine-protein kinase Sgk2 (Homo sapiens);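 further: each value is a mean percent inhibition of SGK2 from the GSK PKIS kinase screen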
settings: at 0.1 µM
reported.endpoint: inhibition (%)
Unit % implied. Number only.

INSERT INTO measurements (compound, system, recorded_measurement) VALUES
  ('COc1ccc2cc(-c3c(-c4ccncc4)nc(-c4ccc([S+](C)[O-])cc4)n3C)ccc2c1 (centres undefined)', 'Serine/threonine-protein kinase Sgk2 (Homo sapiens)', 2.93),
  ('CNC(=O)c1cncc(/C=C/c2c(Cl)cccc2Cl)c1', 'Serine/threonine-protein kinase Sgk2 (Homo sapiens)', 0.49),
  ('O=C1NC(=O)C(N2CCc3ccccc32)=C1c1ccc(Cl)cc1', 'Serine/threonine-protein kinase Sgk2 (Homo sapiens)', 2.07),
  ('CCn1c(-c2nonc2N)nc2c(C#CC(C)(C)O)nc(OC[C@@H](N)c3ccccc3)cc21', 'Serine/threonine-protein kinase Sgk2 (Homo sapiens)', 2.41);

Log: Serine/threonine-protein kinase Sgk2 (Homo sapiens), compound COC(=O)Nc1nc2cc(Oc3ccc(NC(=O)Nc4cccc(C(=O)O)c4)cc3)ccc2[nH]1 , inhibition = 1.67

Log: Serine/threonine-protein kinase Sgk2 (Homo sapiens), compound Cc1ccc(NC(=O)c2ccnc(N3CCCC3)c2)cc1-c1ccc(C(=O)NCC2CC2)cc1 , inhibition = 2.67

Log: Serine/threonine-protein kinase Sgk2 (Homo sapiens), compound CCn1c(-c2nonc2N)nc2cncc(C(=O)N3CC[C@H](N)C3)c21 , inhibition = 6.54

Log: Serine/threonine-protein kinase Sgk2 (Homo sapiens), compound Nc1ncnc2occ(-c3ccc(NC(=O)Nc4cc(C(F)(F)F)cc(C(F)(F)F)c4)cc3)c12 , inhibition = 2.27

Log: Serine/threonine-protein kinase Sgk2 (Homo sapiens), compound NC(=O)c1cccc(Nc2nccc(Nc3cccc4[nH]ncc34)n2)c1 , inhibition = -4.35

Log: Serine/threonine-protein kinase Sgk2 (Homo sapiens), compound CCN1CCC(CC(=O)Nc2n[nH]c3nc(-c4cccs4)c(Br)cc23)CC1 , inhibition = -5.07

Log: Serine/threonine-protein kinase Sgk2 (Homo sapiens), compound O=C(Nc1n[nH]c2nc(-c3ccco3)c(Br)cc12)C1CC1 , inhibition = 0.84

Log: Serine/threonine-protein kinase Sgk2 (Homo sapiens), compound Fc1cccc(COc2ccc(Nc3ncnc4cc(-c5ccc[nH]5)sc34)cc2Cl)c1 , inhibition = -0.18

Log: Serine/threonine-protein kinase Sgk2 (Homo sapiens), compound COc1cc(C)c(NC(=O)CN(C)C)cc1Nc1nc(Nc2cccc(F)c2C(N)=O)c2cc[nH]c2n1 , inhibition = 1.44

Log: Serine/threonine-protein kinase Sgk2 (Homo sapiens), compound N#Cc1c(NC(=O)c2cccc3ccccc23)sc2c1CCCC2 , inhibition = 1.09

* * *

system: Serine/threonine-protein kinase SIK1 (Homo sapiens);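 further: mean inhibition value from the GSK PKIS profiling set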
settings: at 1 µM
reported.endpoint: inhibition (%)
Unit % implied. Number only.

Log: Serine/threonine-protein kinase SIK1 (Homo sapiens), compound CCn1c(-c2nonc2N)nc2cncc(C(=O)N3CC[C@H](N)C3)c21 , inhibition = 9.11

Log: Serine/threonine-protein kinase SIK1 (Homo sapiens), compound CC1=C(C(=O)Nc2ccc3[nH]ncc3c2)C(c2ccc3ccccc3c2)CC(=O)N1 (centres undefined) , inhibition = 1.28

Log: Serine/threonine-protein kinase SIK1 (Homo sapiens), compound COC(=O)Nc1nc2cc(Oc3cccc(NC(=O)Nc4cc(C(F)(F)F)ccc4F)c3)ccc2[nH]1 , inhibition = 2.51

Log: Serine/threonine-protein kinase SIK1 (Homo sapiens), compound O=C1NC(=O)C(c2ccc(Cl)cc2)=C1Nc1ccc(Cl)c(C(=O)O)c1 , inhibition = -4.82

Log: Serine/threonine-protein kinase SIK1 (Homo sapiens), compound CCn1c(-c2nonc2N)nc2cncc(C(=O)N3CCNCC3)c21 , inhibition = 14.2

Log: Serine/threonine-protein kinase SIK1 (Homo sapiens), compound COc1cc2ncn(-c3cc(O[C@@H](C)c4ccccc4Cl)c(C(N)=O)s3)c2cc1OC , inhibition = 18.1

Log: Serine/threonine-protein kinase SIK1 (Homo sapiens), compound COc1ccc(-c2ccncc2)cc1C(N)=O , inhibition = 9.53

Log: Serine/threonine-protein kinase SIK1 (Homo sapiens), compound [O-][S+]1CCN(Cc2ccc(-c3ccc4ncnc(Nc5ccc(OCc6ccccc6)c(F)c5)c4c3)o2)CC1 , inhibition = 3.96

Log: Serine/threonine-protein kinase SIK1 (Homo sapiens), compound Nc1nc(-c2ccc3c(c2)C(=Cc2cc(Br)c(O)c(Br)c2)C(=O)N3)cs1 , inhibition = -3.45

* * *

# Lookup of reported inhibition keyed by entry
system: Serine/threonine-protein kinase Chk2 (Homo sapiens) (UniProt O96017)
Sequence (O96017 whole entry): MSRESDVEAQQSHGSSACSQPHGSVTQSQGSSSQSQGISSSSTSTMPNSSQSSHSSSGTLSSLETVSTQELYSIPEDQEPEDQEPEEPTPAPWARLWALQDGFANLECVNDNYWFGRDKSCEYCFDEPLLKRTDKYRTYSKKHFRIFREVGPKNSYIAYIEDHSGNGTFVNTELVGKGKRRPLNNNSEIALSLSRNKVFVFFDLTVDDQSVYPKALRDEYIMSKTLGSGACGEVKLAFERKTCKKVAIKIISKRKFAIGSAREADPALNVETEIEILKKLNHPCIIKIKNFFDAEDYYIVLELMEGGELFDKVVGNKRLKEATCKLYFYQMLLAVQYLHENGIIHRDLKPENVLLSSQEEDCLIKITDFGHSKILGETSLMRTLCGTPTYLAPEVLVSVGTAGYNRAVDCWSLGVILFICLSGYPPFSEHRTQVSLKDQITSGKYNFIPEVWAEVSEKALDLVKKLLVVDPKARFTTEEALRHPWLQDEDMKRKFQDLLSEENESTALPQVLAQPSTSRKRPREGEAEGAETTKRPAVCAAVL
settings: at 0.1 µM
Description: GSK_PKIS: CHEK2 mean inhibition at 0.1 uM [Nanosyn]

The examples below pair each entry with its known result.
INSERT INTO assay_data (cpd_smiles, reported_endpoint, recorded_measurement) VALUES
  ('O=C1NC(=O)C(N2CCc3ccccc32)=C1c1ccc(Cl)cc1', 'inhibition', '8.35%'),
  ('CCn1c(-c2nonc2N)nc2cnc(Oc3cccc(NC(=O)c4ccc(OCCN5CCOCC5)cc4)c3)cc21', 'inhibition', '3.15%'),
  ('NC(=O)c1ccc(-c2nc(-c3ccccn3)c(-c3ccc4c(c3)OCO4)[nH]2)cc1', 'inhibition', '1.07%');

Please examine the following record next.
Measured inhibition, O=C1NC(=O)C(c2cccc(Cl)c2)=C1Nc1ccc(O)c(Cl)c1 : 0.16%

* * *

# Lookup of reported inhibition keyed by entry
system: Cyclin-dependent kinase 4 (Homo sapiens) (UniProt P11802);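 further: enzyme tested as the CDK4–cyclin D complex, with the value reported as mean percent inhibition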
Sequence (P11802 whole entry): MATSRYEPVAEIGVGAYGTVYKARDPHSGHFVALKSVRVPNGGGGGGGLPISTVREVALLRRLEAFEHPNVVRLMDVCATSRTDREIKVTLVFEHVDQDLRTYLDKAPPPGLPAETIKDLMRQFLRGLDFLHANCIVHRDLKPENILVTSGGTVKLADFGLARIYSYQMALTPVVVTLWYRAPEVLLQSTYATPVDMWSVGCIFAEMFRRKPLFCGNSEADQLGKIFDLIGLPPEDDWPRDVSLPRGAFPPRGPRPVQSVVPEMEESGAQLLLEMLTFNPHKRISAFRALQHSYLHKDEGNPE
settings: at 1 µM
Unit % implied. Number only.

The examples below pair each entry with its known result.
INSERT INTO measurements (cpd_smiles, reported_endpoint, recorded_measurement) VALUES
  ('NC(=O)c1cccc(Nc2nccc(Nc3cccc4[nH]ncc34)n2)c1', 'inhibition', 5.05),
  ('COc1ccccc1Nc1ncc(-c2ccccc2)o1', 'inhibition', 2.21),
  ('COc1ccc(-c2nn3ncccc3c2-c2ccnc(Nc3ccc(Cl)c(C(F)(F)F)c3)n2)cc1', 'inhibition', 2.09);

Please examine the following record next.
Measured inhibition, CNC(=O)c1cncc(/C=C/c2c(Cl)cccc2Cl)c1 : 3.96

* * *

# Lookup of reported inhibition keyed by entry
system: Serine/threonine-protein kinase MRCK alpha (Homo sapiens) (UniProt Q5VT25);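 further: each value is an averaged percent inhibition of MRCK alpha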
Sequence (Q5VT25 whole entry): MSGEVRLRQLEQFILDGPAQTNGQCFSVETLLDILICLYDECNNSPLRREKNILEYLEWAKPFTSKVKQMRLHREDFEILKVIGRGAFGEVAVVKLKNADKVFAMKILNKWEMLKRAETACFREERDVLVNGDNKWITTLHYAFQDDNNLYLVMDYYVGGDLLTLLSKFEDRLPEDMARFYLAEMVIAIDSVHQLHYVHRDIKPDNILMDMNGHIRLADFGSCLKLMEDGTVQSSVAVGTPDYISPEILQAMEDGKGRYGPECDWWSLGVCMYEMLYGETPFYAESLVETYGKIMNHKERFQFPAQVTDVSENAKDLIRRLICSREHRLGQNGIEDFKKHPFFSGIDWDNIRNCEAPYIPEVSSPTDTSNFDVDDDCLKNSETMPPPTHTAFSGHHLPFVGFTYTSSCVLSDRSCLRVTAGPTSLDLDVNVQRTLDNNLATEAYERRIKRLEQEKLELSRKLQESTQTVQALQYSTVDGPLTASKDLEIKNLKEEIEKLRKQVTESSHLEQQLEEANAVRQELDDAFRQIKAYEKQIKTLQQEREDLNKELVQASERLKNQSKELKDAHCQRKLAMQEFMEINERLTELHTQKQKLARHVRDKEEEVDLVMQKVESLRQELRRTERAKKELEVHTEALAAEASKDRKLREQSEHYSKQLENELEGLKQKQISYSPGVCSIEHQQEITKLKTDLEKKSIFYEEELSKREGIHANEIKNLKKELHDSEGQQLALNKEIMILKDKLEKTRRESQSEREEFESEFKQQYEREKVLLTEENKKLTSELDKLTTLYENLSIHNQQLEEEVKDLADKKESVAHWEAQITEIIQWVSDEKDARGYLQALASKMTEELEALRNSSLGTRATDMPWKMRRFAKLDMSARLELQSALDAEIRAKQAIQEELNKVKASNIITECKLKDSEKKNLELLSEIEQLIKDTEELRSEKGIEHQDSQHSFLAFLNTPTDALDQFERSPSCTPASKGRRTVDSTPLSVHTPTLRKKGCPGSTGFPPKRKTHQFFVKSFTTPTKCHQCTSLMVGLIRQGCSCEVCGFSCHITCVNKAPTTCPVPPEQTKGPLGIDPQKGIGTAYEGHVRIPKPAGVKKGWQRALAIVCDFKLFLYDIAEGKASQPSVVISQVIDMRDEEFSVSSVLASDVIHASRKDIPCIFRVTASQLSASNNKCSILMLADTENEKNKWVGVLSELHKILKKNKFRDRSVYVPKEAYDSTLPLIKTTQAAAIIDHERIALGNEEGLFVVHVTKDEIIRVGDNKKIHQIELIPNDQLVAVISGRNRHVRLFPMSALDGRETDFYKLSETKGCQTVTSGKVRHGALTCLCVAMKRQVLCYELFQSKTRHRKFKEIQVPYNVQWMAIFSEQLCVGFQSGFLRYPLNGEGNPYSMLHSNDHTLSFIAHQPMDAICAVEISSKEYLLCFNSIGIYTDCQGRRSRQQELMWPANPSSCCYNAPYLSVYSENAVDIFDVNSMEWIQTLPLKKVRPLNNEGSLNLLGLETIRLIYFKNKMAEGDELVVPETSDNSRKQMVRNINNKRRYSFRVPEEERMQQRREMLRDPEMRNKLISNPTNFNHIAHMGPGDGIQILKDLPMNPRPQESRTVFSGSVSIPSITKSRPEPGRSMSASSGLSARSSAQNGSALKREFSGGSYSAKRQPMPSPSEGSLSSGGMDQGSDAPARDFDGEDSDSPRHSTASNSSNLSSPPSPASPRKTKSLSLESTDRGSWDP
settings: at 1 µM
Unit % implied. Number only.

The examples below pair each entry with its known result.
INSERT INTO assay_data (cpd_smiles, units_of_measure, recorded_measurement) VALUES
  ('CN(C)c1cc2c(Nc3ccc4nc(Cc5ccccc5)[nH]c4c3)ncnc2cn1', '%', 1.32),
  ('COC(=O)Nc1nc2cc(Oc3cccc(NC(=O)Nc4cc(C(F)(F)F)ccc4F)c3)ccc2[nH]1', '%', 0.69),
  ('COC(=O)Nc1nc2cc(Oc3ccc(NC(=O)Nc4cccc(C(=O)O)c4)cc3)ccc2[nH]1', '%', 1.5),
  ('COc1ccc(-c2nn3ncccc3c2-c2ccnc(Nc3ccc(Cl)c(C(F)(F)F)c3)n2)cc1', '%', 3.43),
  ('Nc1ncnc2occ(-c3ccc(NC(=O)Nc4cccc(C(F)(F)F)c4)cc3)c12', '%', 0.21),
  ('Nc1nc(-c2ccccn2)c(-c2ccc3ncccc3n2)s1', '%', -0.21),
  ('COc1cccc(-n2ncc3c(N/N=C/c4cccc(F)c4)ncnc32)c1', '%', -0.68),
  ('CCn1c(-c2nonc2N)nc2c(C#CC(C)(C)O)nc(OC[C@@H](N)c3ccccc3)cc21', '%', 48.2);

Log: Serine/threonine-protein kinase MRCK alpha (Homo sapiens) (UniProt Q5VT25), compound CS(=O)(=O)CCN(CC#N)Cc1ccc(-c2ccc3ncnc(Nc4ccc(OCc5cccc(F)c5)c(Cl)c4)c3c2)o1 , inhibition = -1.53

Log: Serine/threonine-protein kinase MRCK alpha (Homo sapiens) (UniProt Q5VT25), compound CCCN1CCC=C(c2ccc(Nc3nc(Nc4ccccc4C(N)=O)c4cc[nH]c4n3)c(C)c2)C1 , inhibition = 9.75

Log: Serine/threonine-protein kinase MRCK alpha (Homo sapiens) (UniProt Q5VT25), compound c1cnn2ncc(-c3ccnc(Nc4ccc5c(c4)OCCO5)n3)c2c1 , inhibition = 0.87

Log: Serine/threonine-protein kinase MRCK alpha (Homo sapiens) (UniProt Q5VT25), compound Cc1nnc(-c2ccc(C)c(-c3ccc(C(=O)Nc4cccc(C#N)c4)cc3)c2)o1 , inhibition = 2.76

Log: Serine/threonine-protein kinase MRCK alpha (Homo sapiens) (UniProt Q5VT25), compound COc1ccc(-c2coc3ncnc(N)c23)cc1 , inhibition = -0.11
